System: DU-145
Assay: NCI tumour cell line growth inhibition, 48 h
Calls of active or inactive are those of the source. No stated cut-off is given here; in the data, active = GI50 up to about 1.1 µM and inactive = higher.
# valid calls are Y for active, N for inactive; nothing else

>>> print(df.to_string())
                                   compound  answer_label
0  Nc1ccc(S(=O)(=O)Nc2nc3ccccc3nc2Nc2ccc(S(N)(=O)=O)cc2)cc1             N
1  Nc1nc(Cl)c(N)c(NCC2(CO)CCC(OCc3ccccc3)C2)n1 (stereo not given)             N
2  O=[N+]([O-])/C=C/c1cn(CCCCCCCCn2cc(/C=C/[N+](=O)[O-])c3ccccc32)c2ccccc12             N
3    c1ccc(-c2ccc(-c3cc4ccccc4[nH]3)cc2)cc1             N
4  S=C1/C(=N/c2ccccc2)N(c2ccccc2)/C(=N\c2ccccn2)N1c1ccccc1             N

Record lookup: outcome of this test for COC(=O)C1CCC(=O)N1C(c1ccc2c(c1)OCO2)c1cc(OC)c(OC)c(OC)c1 (stereo not given) ?
N

----------
Tested on: HT-29
Experiment: NCI tumour cell line growth inhibition, 48 h
The source made the active and inactive calls. No stated cut-off is given here; in the data, active = GI50 up to about 1.1 µM and inactive = higher.
# valid calls are active, inactive; nothing else

Reference set, count: 3
>>> print(df.to_string())
         compound_structure_string  answer_label
0     O=C1c2cccnc2-c2nccc3ccnc1c23        active
1  Cc1c(C)c2ccc3oc4ccccc4c3c2oc1=O      inactive
2        CC#C[C@@]1(O)CCCC[C@@H]1O      inactive

Record lookup: outcome of this test for `N#Cc1c(N)nc2c(C#N)c(N)cc3c2c1Oc1ccccc1-3` ?
inactive

----------
Tested on: SF-295
Assay: NCI tumour cell line growth inhibition, 48 h
Active and inactive are the calls of the source. Rule as the data show it: active = GI50 up to about 1.1 µM and inactive = higher.
Entries and their GI50 values follow.

Tell me the measured GI50 of `O=C1c2n[nH]nc2C(=O)c2n[nH]nc21` , please.
> 100 µM (inactive)

----------
Entries and their GI50 values follow.
Tested on: SK-MEL-28
Assay: NCI tumour cell line growth inhibition, 48 h
Active and inactive are the calls of the source. Cut-off read from the data, not from the text of the source: active = GI50 up to about 1.1 µM and inactive = higher.

Recorded results for 5 compounds are shown here.
>>> print(df.to_string())
                                   compound           measurement
0  Nc1c(C(=O)c2ccc(Cl)cc2)[nH]c(Nc2ccc(Cl)cc2)c1C(=S)Nc1ccccc1    4.27 µM (inactive)
1  O=C1C(=O)N(c2ccc(Cl)cc2Cl)C(=O)C(=O)C1c1nc2ccccc2s1  > 87.9 µM (inactive)
2  O=C(CC(=O)Nc1ccc(C(=O)O)cc1)Nc1ccc(C(=O)O)cc1   > 100 µM (inactive)
3   CNNC(=NS(=O)(=O)c1cc(C#N)c(NNC)cc1S)NNC    > 10 µM (inactive)
4    NC1CC(=O)c2cscc21 (stereo unspecified)    37.3 µM (inactive)

Please find the next compound below.
Tell me the measured GI50 of CN(C)CC(/C(Cc1ccccc1)=N\NC(=O)C[n+]1ccccc1)c1ccccc1 (stereo unspecified) , please.
> 100 µM (inactive)

----------
Test system: OVCAR-3
Assay: NCI tumour cell line growth inhibition, 48 h
Activity calls are given as the source filed them. Cut-off read from the data, not from the text of the source: active = GI50 up to about 1.1 µM and inactive = higher.
# valid calls are active, inactive; nothing else

Reference set, count: 5
Molecule	Answer label
CNNC(=NS(=O)(=O)c1cc(C#N)c(NNC)cc1S)NNC	inactive
CC1=C2C3OC(=O)C(C)C3C(O)C[C@@]2(C)C(=O)CC1 (stereo partly drawn)	inactive
COC(=O)[C@@H]1c2cc3c(c(O)c2[C@@H](OC2OC(C)C(OC)C(C)(OC)C2OC)C[C@]1(C)O)C(=O)c1c(O)cc2c(c1C3=O)O[C@H]1O[C@]2(C)[C@H](O)[C@@H](N(C)C)[C@@H]1O (stereo partly drawn)	active
OCCOCCN1CCN(c2nc(N3CCCC3)c3nc(Cl)c(NCc4ccccc4)nc3n2)CC1	inactive
Cc1ccc2c(c1)CC1(C2)Cc2ccc(C)cc2C1=O (stereo not drawn)	inactive

Record lookup: outcome of this test for CSC1NC(c2ccc(Cl)cc2)=C(C#N)C(=O)N1C1OCC(OC(C)=O)C(OC(C)=O)C1OC(C)=O (stereo not drawn) ?
inactive

Record lookup: outcome of this test for CC(=O)OC1COC(n2c(N)c(C#N)c(C)c(C#N)c2=S)C(OC(C)=O)C1OC(C)=O (stereo not drawn) ?
inactive

Record lookup: outcome of this test for Cc1ccc(S(=O)(=O)OC(COC(=O)c2ccccc2)C(OS(=O)(=O)c2ccc(C)cc2)C(OS(=O)(=O)c2ccc(C)cc2)C(COC(=O)c2ccccc2)OS(=O)(=O)c2ccc(C)cc2)cc1 (stereo not drawn) ?
inactive
